- subject_of_test: KRas^G12R (Homo sapiens, UniProt P01116, G12R)
- Construct: […]; biotin (biotinylated)
- Sequence (P01116 1-169 isoform P01116-2 G12R): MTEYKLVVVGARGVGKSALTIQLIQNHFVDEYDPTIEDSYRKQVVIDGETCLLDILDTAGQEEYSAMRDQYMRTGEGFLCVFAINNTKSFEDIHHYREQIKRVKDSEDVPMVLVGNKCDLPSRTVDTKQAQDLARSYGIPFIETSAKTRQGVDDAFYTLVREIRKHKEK
- protocol_text: KRas binding assay (TR-FRET displacement of Cy5 labelled tracer)
// values below are reported IC50

{"columns": ["compound", "comparative_sign", "IC50 (nM)"],
 "data": [
  ["CCc1c(F)ccc2cc(O)cc(N3CCc4c(nc(OC[C@@H]5CCCN5C)nc4N4CCCn5nc(C(=O)N(C)C)cc5C4)C3)c12", "=", 5],
  ["Cc1cc2[nH]ncc2c(N2CCc3c(nc(OCC45CCCN4CCC5)nc3N3CCC[C@@](C)(O)C3)C2)c1C", "=", 144],
  ["CCc1c(F)ccc2cc(O)cc(N3CCc4c(nc(OC[C@@]56CCCN5C[C@H](F)C6)nc4N4CCCC5(C4)NC(=O)NC5=O)C3)c12 (stereo partly shown)", "≤", 2],
  ["CCc1c(F)ccc2cc(O)cc(N3CCc4c(nc(OC[C@@]56CCCN5C[C@H](F)C6)nc4N4CCCn5nc(C(=O)N(C)C)c(F)c5C4)C3)c12", "≤", 2],
  ["Oc1cc(N2CCc3c(nc(OC[C@@]45CCCN4C[C@H](F)C5)nc3N3CC4CC(O)CC3C4)C2)c2c(Br)c(F)ccc2c1 (single isomer, unassigned) [Example 214]", "=", 54],
  ["CCc1c(F)ccc2cc(O)cc(N3CCc4c(nc(OC[C@@]56CCCN5C[C@H](F)C6)nc4N4CCC[C@]5(C4)NC(=O)NC5=O)C3)c12", "≤", 2],
  ["O=C1NCC2(CCCN(c3nc(OC[C@@]45CCCN4C[C@H](F)C5)nc4c3CCN(c3cc(O)cc5ccc(F)c(Br)c35)C4)C2)N1 (stereo partly shown)", "=", 3]
]}

* * *

- subject_of_test: KRas^Q61H (Homo sapiens, UniProt P01116, Q61H)
- Sequence (P01116 1-169 isoform P01116-2 Q61H): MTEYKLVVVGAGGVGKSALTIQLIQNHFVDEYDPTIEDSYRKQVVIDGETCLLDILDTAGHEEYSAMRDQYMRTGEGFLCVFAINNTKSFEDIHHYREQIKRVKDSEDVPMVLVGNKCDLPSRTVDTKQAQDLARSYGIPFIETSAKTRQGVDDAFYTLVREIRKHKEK
- protocol_text: biochemical
Please assign a class to every record based on measured IC50, with ranges low: < 0.5 µM; moderate: ≥ 0.5 µM and < 2 µM; high: ≥ 2 µM

{"columns": ["compound", "category"],
 "data": [
  ["CCc1cccc2cccc(N3CCc4c(nc(OCC56CCCN5CCC6)nc4N4CCCCCCC4)C3)c12", "moderate"],
  ["CCc1cccc2cccc(N3CCc4c(nc(OCC56CCCN5CCC6)nc4N4CCCC(n5nccn5)C4)C3)c12 (stereo not drawn)", "moderate"],
  ["CCc1cccc2cccc(N3CCc4c(nc(OCC56CCCN5CCC6)nc4N4CCC(CO)C(O)C4)C3)c12 (stereo not drawn)", "low"],
  ["CCc1cccc2cccc(N3CCc4c(nc(OCC56CCCN5CCC6)nc4N4CCCC5(CC(=O)N5)C4)C3)c12 (stereo not drawn)", "low"],
  ["CCc1cccc2cccc(N3CCc4c(nc(OCC56CCCN5CCC6)nc4N4CCCC(c5ncn[nH]5)C4)C3)c12 (stereo not drawn)", "moderate"],
  ["CCc1cccc2cccc(N3CCc4c(nc(OCC56CCCN5CCC6)nc4N4CCCC(c5ccn(C)n5)C4)C3)c12 (stereo not drawn)", "moderate"],
  ["CCc1cccc2cccc(N3CCc4c(nc(OCC56CCCN5CCC6)nc4NCc4nc5ncccc5o4)C3)c12", "high"],
  ["CCc1cccc2cccc(N3CCc4c(nc(OCC56CCCN5CCC6)nc4N(C)CC4(O)CC4)C3)c12", "moderate"],
  ["CCc1cccc2cccc(N3CCc4c(nc(OCC56CCCN5CCC6)nc4NCCNc4ncccc4C#N)C3)c12", "high"],
  ["CCc1cccc2cccc(N3CCc4c(nc(OCC56CCCN5CCC6)nc4N(C)Cc4c[nH]nn4)C3)c12", "moderate"],
  ["CCc1cccc2cccc(N3CCc4c(nc(OCC56CCCN5CCC6)nc4NC4CN(c5ccccn5)C4)C3)c12", "high"],
  ["CCc1cccc2cccc(N3CCc4c(nc(OCC56CCCN5CCC6)nc4N4CCCC(O)CC4)C3)c12 (stereo not drawn)", "low"],
  ["CCc1cccc2cccc(N3CCc4c(nc(OCC56CCCN5CCC6)nc4N4Cc5ccnn5CC(O)C4)C3)c12 (stereo not drawn)", "moderate"],
  ["CCc1cccc2cccc(N3CCc4c(nc(OCC56CCCN5CCC6)nc4N4CCCC(c5nc(C)c(C)[nH]5)C4)C3)c12 (stereo not drawn)", "high"]
]}
